target: PDE1B (Homo sapiens); test: In vitro HTRF PDE1 inhibition assay (PDE1B); assay type: biochemical; details: 100 nM cyclic GMP, calmodulin, 45 minutes at 37° C.
Sequence (Q01064 whole entry): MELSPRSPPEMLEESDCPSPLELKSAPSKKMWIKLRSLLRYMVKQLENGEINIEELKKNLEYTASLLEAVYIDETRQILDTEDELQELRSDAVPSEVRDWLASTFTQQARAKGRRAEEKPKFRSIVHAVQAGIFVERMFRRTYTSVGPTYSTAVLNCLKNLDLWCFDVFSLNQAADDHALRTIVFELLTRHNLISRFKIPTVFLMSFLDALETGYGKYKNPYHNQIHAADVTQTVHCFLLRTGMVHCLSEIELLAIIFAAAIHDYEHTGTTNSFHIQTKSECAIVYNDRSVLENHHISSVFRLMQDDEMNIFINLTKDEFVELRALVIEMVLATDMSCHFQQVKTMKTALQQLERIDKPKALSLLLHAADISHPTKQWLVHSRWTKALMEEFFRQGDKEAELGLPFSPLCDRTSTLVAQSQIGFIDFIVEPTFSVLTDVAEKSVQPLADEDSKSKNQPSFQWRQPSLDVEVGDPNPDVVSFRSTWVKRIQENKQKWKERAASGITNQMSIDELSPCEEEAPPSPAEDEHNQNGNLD
Parameter: IC50

IC50 measured on N#Cc1ccc(C2CCn3c(nn4c(C5CCOCC5)ncc4c3=O)N2)cc1 (stereo not drawn) = < 1 µM

IC50 measured on `CC1(c2ncc3c(=O)n4c(nn23)N[C@@H](c2ccc(Cl)cc2)CC4)CCCC1` = < 1 µM

IC50 measured on CC(C)c1ncc2c(=O)n3c(nn12)NC(c1ccc(OCF)cc1)C3 (stereo not drawn) = < 1 µM

IC50 measured on CC(C)(C)n1ncc2c(=O)n3c(nc21)NC(c1ccc(Cl)cc1)CC3 (stereo not drawn) = 10 to 100 µM

IC50 measured on `CC(C)Cc1ncc2c(=O)n3c(nn12)N[C@@H](c1ccc(Cl)cc1)CC3` = < 1 µM
